Assay: method code SF-HPLC, from DOI: 10.1002/qsar.19900090302
Details: pH 7.0
Where a SMILES comes first, the peptide text is derived from it.
test readout: logD
// response body must contain only the number

# input compound: CC(=O)NC(CCC(N)=O)C(=O)NC(C(N)=O)C(C)C (stereo not drawn) (Ac-Gln-Val-NH2; configuration not given here) ; wanted: its logD -1.85

# input compound: CC(=O)N[C@@H](CC(C)C)C(=O)N[C@H](C(=O)N[C@@H](CC(C)C)C(N)=O)[C@@H](C)O (Ac-Leu-Thr-Leu-NH2) ; wanted: its logD 0.24

# input compound: "CC[C@H](C)[C@H](NC(=O)[C@@H](NC(=O)[C@H](C)NC(C)=O)C(C)C)C(N)=O" ; wanted: its logD -0.2

# input compound: "CC(=O)N[C@@H](CC(C)C)C(=O)N[C@@H](CC(N)=O)C(N)=O" ; wanted: its logD -1.3

# input compound: CC(=O)N[C@H](C(=O)N[C@@H](C)C(N)=O)C(C)C (Ac-Val-Ala-NH2) ; wanted: its logD -1.14

# input compound: CC[C@H](C)[C@H](NC(=O)[C@@H](NC(C)=O)[C@@H](C)O)C(N)=O (Ac-Thr-Ile-NH2) ; wanted: its logD -0.86

# input compound: CC(=O)NC(C(=O)NC(CCC(N)=O)C(N)=O)C(C)C (stereo not drawn) (Ac-Val-Gln-NH2; configuration not given here) ; wanted: its logD -1.82

# input compound: CC[C@H](C)[C@H](NC(=O)[C@H](CC(N)=O)NC(C)=O)C(N)=O (Ac-Asn-Ile-NH2) ; wanted: its logD -1.43

----------
Experiment: method code SF-AS, from DOI: 10.1002/qsar.19900090302
Details: pH 7.0
Where a SMILES comes first, the peptide text is derived from it.
test readout: logD
// response body must contain only the number

# input compound: CC(=O)N[C@@H](Cc1ccc(O)cc1)C(=O)N[C@@H](Cc1ccccc1)C(N)=O (Ac-Tyr-Phe-NH2) ; wanted: its logD 0.54

# input compound: CC(=O)N[C@@H](Cc1c[nH]c2ccccc12)C(=O)N[C@@H](C)C(=O)N[C@H](C(N)=O)C(C)C (Ac-Trp-Ala-Val-NH2) ; wanted: its logD 0.36

# input compound: CC[C@H](C)[C@H](NC(=O)[C@H](Cc1ccccc1)NC(C)=O)C(=O)NCC(N)=O (Ac-Phe-Ile-Gly-NH2) ; wanted: its logD 0.34

# input compound: "CC(=O)N[C@@H](Cc1ccc(O)cc1)C(=O)N[C@H](C(N)=O)C(C)C" ; wanted: its logD -0.2

----------
Test: method code SF-AS, from DOI: 10.1002/qsar.19900090302
Conditions: pH 7.0
Where a SMILES comes first, the peptide text is derived from it.
Record form. Attribute: logD. Fill in for each entry.
// response body must contain only the number

# input compound: CC(=O)N[C@@H](Cc1ccccc1)C(=O)N[C@H](C(N)=O)C(C)C (Ac-Phe-Val-NH2) ; wanted: its logD 0.43

# input compound: CC[C@H](C)[C@H](NC(=O)[C@H](Cc1c[nH]c2ccccc12)NC(C)=O)C(=O)NCC(N)=O (Ac-Trp-Ile-Gly-NH2) ; wanted: its logD 0.62

# input compound: CC[C@H](C)[C@H](NC(C)=O)C(=O)N[C@@H](Cc1ccccc1)C(=O)N[C@@H](C)C(N)=O (Ac-Ile-Phe-Ala-NH2) ; wanted: its logD 0.52

# input compound: CC(=O)N[C@@H](C)C(=O)N[C@@H](Cc1ccc(O)cc1)C(=O)N[C@@H](CC(C)C)C(N)=O (Ac-Ala-Tyr-Leu-NH2) ; wanted: its logD -0.04

----------
Assay: method code SF-AS, from DOI: 10.1002/qsar.19900090302
Settings: pH 7.0
Where a SMILES comes first, the peptide text is derived from it.
test readout: logD
// response body must contain only the number

# input molecule: CC(=O)N[C@@H](C)C(=O)N[C@@H](Cc1ccc(O)cc1)C(=O)N[C@@H](Cc1ccccc1)C(N)=O (Ac-Ala-Tyr-Phe-NH2) ; wanted: its logD 0.26

# input molecule: CC(=O)N[C@@H](CC(C)C)C(=O)N[C@@H](CO)C(=O)N[C@@H](Cc1ccccc1)C(N)=O (Ac-Leu-Ser-Phe-NH2) ; wanted: its logD 0.23

# input molecule: CC(=O)N[C@@H](CCC(N)=O)C(=O)N[C@@H](Cc1ccccc1)C(N)=O (Ac-Gln-Phe-NH2) ; wanted: its logD -1.14

# input molecule: "CC(=O)N[C@@H](Cc1c[nH]c2ccccc12)C(=O)NCC(=O)N[C@@H](Cc1ccccc1)C(N)=O" ; wanted: its logD 0.99

# input molecule: CC(=O)N[C@@H](Cc1ccccc1)C(=O)NCC(N)=O (Ac-Phe-Gly-NH2) ; wanted: its logD -0.5

# input molecule: CC(=O)N[C@@H](Cc1c[nH]c2ccccc12)C(=O)N[C@@H](C)C(=O)N[C@@H](C)C(N)=O (Ac-Trp-Ala-Ala-NH2) ; wanted: its logD -0.31

# input molecule: CC(=O)N[C@@H](C)C(=O)NCC(=O)N[C@@H](Cc1ccccc1)C(N)=O (Ac-Ala-Gly-Phe-NH2) ; wanted: its logD -0.71

----------
Assay: method code SF-HPLC, from DOI: 10.1002/qsar.19900090302
Details: pH 7.0
Where a SMILES comes first, the peptide text is derived from it.
Record form. Attribute: logD. Fill in for each entry.
// response body must contain only the number

# input compound: CC(=O)N[C@@H](CC(C)C)C(=O)N[C@H](C(N)=O)C(C)C (Ac-Leu-Val-NH2) ; wanted: its logD 0.26

# input compound: CC(=O)NC(CC(N)=O)C(=O)NC(C(N)=O)C(C)C (stereo not drawn) (Ac-Asn-Val-NH2; configuration not given here) ; wanted: its logD -1.85

# input compound: CC(=O)N[C@@H](C)C(=O)N[C@H](C(N)=O)C(C)C (Ac-Ala-Val-NH2) ; wanted: its logD -1.13

# input compound: "CC(=O)N[C@H](C(=O)N[C@@H](C)C(=O)N[C@@H](C)C(N)=O)C(C)C" ; wanted: its logD -1.4

----------
Assay: method code SF-HPLC, from DOI: 10.1002/qsar.19900090302
Settings: pH 7.0
Where a SMILES comes first, the peptide text is derived from it.
Response field label takes yes when logD is strictly below -0.3 and no in all other cases.

Problem: For the molecule CC(=O)NC(CCC(N)=O)C(=O)NC(CC(C)C)C(N)=O (stereo not drawn) (Ac-Gln-Leu-NH2; configuration not given here) , is logD under -0.3? yes

Problem: For the molecule CC(=O)N[C@H](C(=O)N[C@H](C(N)=O)C(C)C)C(C)C (Ac-Val-Val-NH2) , is logD under -0.3? yes

Problem: For the molecule CC[C@H](C)[C@H](NC(=O)[C@@H](NC(=O)[C@@H](NC(C)=O)C(C)C)C(C)C)C(N)=O (Ac-Val-Val-Ile-NH2) , is logD under -0.3? no

Problem: For the molecule CC[C@H](C)[C@H](NC(C)=O)C(=O)N[C@@H](CC(N)=O)C(N)=O (Ac-Ile-Asn-NH2) , is logD under -0.3? yes

Problem: For the molecule CC(=O)NCC(=O)N[C@H](C(N)=O)C(C)C (Ac-Gly-Val-NH2) , is logD under -0.3? yes

Problem: For the molecule CC(=O)N[C@@H](C)C(=O)N[C@@H](CC(C)C)C(=O)N[C@H](C(N)=O)C(C)C (Ac-Ala-Leu-Val-NH2) , is logD under -0.3? no

Problem: For the molecule CC[C@H](C)[C@H](NC(=O)[C@@H](NC(C)=O)C(C)C)C(=O)NCC(N)=O (Ac-Val-Ile-Gly-NH2) , is logD under -0.3? yes

Problem: For the molecule "CC(=O)NCC(=O)N[C@@H](CC(C)C)C(N)=O" , is logD under -0.3? yes

----------
Record form. Attribute: logD. Fill in for each entry.
Assay: method code SF-AS, from DOI: 10.1002/qsar.19900090302
Conditions: pH 7.0
Where a SMILES comes first, the peptide text is derived from it.
// response body must contain only the number

# input compound: "CC(=O)N[C@@H](Cc1ccccc1)C(=O)NCC(=O)N[C@@H](CC(C)C)C(N)=O" ; wanted: its logD 0.6

# input compound: CC(=O)N[C@H](C(=O)N[C@@H](Cc1ccccc1)C(=O)N[C@@H](C)C(N)=O)C(C)C (Ac-Val-Phe-Ala-NH2) ; wanted: its logD 0.06

# input compound: CC(=O)NCC(=O)N[C@@H](Cc1ccccc1)C(N)=O (Ac-Gly-Phe-NH2) ; wanted: its logD -0.56

# input compound: CC(=O)N[C@@H](Cc1ccc(O)cc1)C(=O)N[C@@H](CC(C)C)C(N)=O (Ac-Tyr-Leu-NH2) ; wanted: its logD 0.32

# input compound: CC(=O)N[C@@H](Cc1c[nH]c2ccccc12)C(=O)N[C@H](C(N)=O)C(C)C (Ac-Trp-Val-NH2) ; wanted: its logD 0.73

# input compound: "CC(=O)N[C@@H](CO)C(=O)N[C@@H](Cc1ccccc1)C(N)=O" ; wanted: its logD -0.79

# input compound: "CC(=O)N[C@@H](Cc1ccccc1)C(=O)N[C@@H](CCC(N)=O)C(N)=O" ; wanted: its logD -1.03

# input compound: CC(=O)NC(CC(N)=O)C(=O)NC(Cc1ccccc1)C(N)=O (stereo not drawn) (Ac-Asn-Phe-NH2; configuration not given here) ; wanted: its logD -1.14
